# credit: ChEMBL document CHEMBL4334488

Catalogue of molecules with associated Ki
- experimental-target: Histamine H3 receptor (Homo sapiens)
- Sequence (Q9Y5N1 whole entry): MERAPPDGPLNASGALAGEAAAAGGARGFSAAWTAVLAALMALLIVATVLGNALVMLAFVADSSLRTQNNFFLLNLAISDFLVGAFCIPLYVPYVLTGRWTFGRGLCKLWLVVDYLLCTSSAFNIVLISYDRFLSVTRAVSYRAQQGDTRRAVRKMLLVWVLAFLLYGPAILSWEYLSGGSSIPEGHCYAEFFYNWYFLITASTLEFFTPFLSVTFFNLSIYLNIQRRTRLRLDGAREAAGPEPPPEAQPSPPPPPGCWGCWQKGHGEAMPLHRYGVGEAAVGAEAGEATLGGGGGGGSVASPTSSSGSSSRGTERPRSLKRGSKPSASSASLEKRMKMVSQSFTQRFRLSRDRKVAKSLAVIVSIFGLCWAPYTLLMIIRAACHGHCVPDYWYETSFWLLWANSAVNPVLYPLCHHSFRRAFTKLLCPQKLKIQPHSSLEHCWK
- assay-explanation: Displacement of 3 nM [3H]Nalpha-methylhistamine from human H3R expressed in Sf9 cell membranes co-expressing Gia2 and beta1gamma2 by competition binding assay
Number only, in µM; omit the unit.

# count of solved cases: 5
molecule	experimental-target	units-label	experimental-value
CC(C)(C)CNc1nccc(NC2CCNC2)n1 (stereo not given)	Histamine H3 receptor (Homo sapiens)	µM	0.204
CC(C)(C)CNc1nccc(NCCN)n1	Histamine H3 receptor (Homo sapiens)	µM	0.692
CC(C)(C)CNc1nccc(N2CCc3nc[nH]c3C2)n1.O=C(O)C(F)(F)F.O=C(O)C(F)(F)F	Histamine H3 receptor (Homo sapiens)	µM	0.00331
CN1CCN(c2ccnc(NCC(C)(C)C)n2)CC1	Histamine H3 receptor (Homo sapiens)	µM	5.5
CC(C)(C)CNc1nccc(NCCCN)n1	Histamine H3 receptor (Homo sapiens)	µM	5.62

// next entry
Q: Recorded Ki for CCC(=O)N[C@@H]1CCN(c2ccnc(NCC(C)(C)C)n2)C1 with Histamine H3 receptor (Homo sapiens), please?
Result: 3.02
